Can you tell me pIC50 for the items I'm about to list?
System: substance-P induced relaxation of the pig coronary arteries
Assay: Antagonism of substance-P induced relaxation of the pig coronary arteries
Type: cell-based
Settings: Sus scrofa, 0.5 h; concentration at which 50% of the response to 10^−9 M substance P was inhibited; 30 minutes incubation; prostaglandin F2a precontracted segments
Answer as the number alone; pIC50 is minus log10 of concentration in mol/L.

Inquiry: Return reported pIC50. Input compound: O=C(c1cc(C(F)(F)F)cc(C(F)(F)F)c1)N1CC[C@@H](N2CCN(Cc3ccccc3)CC2)C[C@@H]1Cc1ccccc1 (racemic)
Reply text: 8.77

Inquiry: Return reported pIC50. Input compound: CN(CC(CCN1CCN([C@H]2CCN(C(=O)c3cc(C(F)(F)F)cc(C(F)(F)F)c3)[C@@H](Cc3ccccc3)C2)CC1)c1ccc(Cl)c(Cl)c1)C(=O)c1ccccc1 (mixture of isomers)
Reply text: 8.30

Inquiry: Return reported pIC50. Input compound: Cc1cccc(C)c1NC(=O)CN1CCN([C@@H]2CCN(C(=O)c3cc(C(F)(F)F)cc(C(F)(F)F)c3)[C@@H](Cc3ccc(Cl)c(Cl)c3)C2)CC1 (racemic)
Reply text: 9.89

---

Can you tell me IC50 for the items I'm about to list?
Tested on: substance-P induced relaxation of the pig coronary arteries
Assay: Antagonism of substance-P induced relaxation of the pig coronary arteries
Type: cell-based
Settings: Sus scrofa, 0.5 h; concentration at which 50% of the response to 10^−9 M substance P was inhibited; 30 minutes incubation; prostaglandin F2a precontracted segments
Numeric only. Scale: nM

Inquiry: Return reported IC50. Input compound: Cc1cc(C)cc(OC(=O)C(c2ccccc2)N2CCN([C@H]3CCN(C(=O)c4cc(C(F)(F)F)cc(C(F)(F)F)c4)[C@@H](Cc4ccccc4)C3)CC2)c1 (mixture of isomers)
Reply text: 5.63

Inquiry: Return reported IC50. Input compound: Cc1cccc(C)c1NC(=O)CN1CCN([C@H]2CCN(C(=O)c3cc(C(F)(F)F)cc(C(F)(F)F)c3)[C@@H](Cc3cc(F)cc(F)c3)C2)CC1 (racemic)
Reply text: 2.08

Inquiry: Return reported IC50. Input compound: Cc1ncc(Cn2c(N3CCN([C@H]4CCN(C(=O)c5cc(C(F)(F)F)cc(C(F)(F)F)c5)[C@@H](Cc5ccccc5)C4)CC3)nc3ccccc32)o1 (racemic)
Reply text: 0.29

---

Can you tell me log10(LAD conjunctiva) for the items I'm about to list?
Test system: substance P induced plasma extravasation
Experiment: Antagonism of substance P induced plasma extravasation in guinea-pigs
Format: in vivo
Details: lowest active dose; female guinea-pigs; compound 1 hour prior to substance P; blue colouring of conjunctiva 10 minutes after challenge
Remember, log10 of LAD conjunctiva, in mg/kg.

Inquiry: Return reported log10(LAD conjunctiva). Input molecule: Cc1ncc(Cn2c(N3CCN(C4CCN(C(=O)c5cc(C(F)(F)F)cc(C(F)(F)F)c5)C(Cc5ccccc5)C4)CC3)nc3ccccc32)o1 (stereo not shown) [Compound 23]
Reply text: 1.60

Inquiry: Return reported log10(LAD conjunctiva). Input molecule: Cc1ncc(Cn2c(N3CCN([C@H]4CCN(C(=O)c5cc(C(F)(F)F)cc(C(F)(F)F)c5)[C@@H](Cc5ccccc5)C4)CC3)nc3ccccc32)o1 (racemic)
Reply text: 1.00

Inquiry: Return reported log10(LAD conjunctiva). Input molecule: Cc1cccc(C)c1NC(=O)CN1CCN(C2CCN(C(=O)c3cc(C(F)(F)F)cc(C(F)(F)F)c3)C(Cc3ccc(C(F)(F)F)cc3)C2)CC1 (single isomer, unassigned)
Reply text: 0.40

Inquiry: Return reported log10(LAD conjunctiva). Input molecule: Cc1cccc(C)c1NC(=O)CN1CCN([C@H]2CCN(C(=O)c3cc(C(F)(F)F)cc(C(F)(F)F)c3)[C@@H](Cc3cc(F)cc(F)c3)C2)CC1 (racemic)
Reply text: 1.00

Inquiry: Return reported log10(LAD conjunctiva). Input molecule: COc1ccccc1NC(=O)CN1CCN(C2CCN(C(=O)c3cc(C(F)(F)F)cc(C(F)(F)F)c3)C(Cc3ccccc3)C2)CC1 (stereo not shown)
Reply text: 1.00

Inquiry: Return reported log10(LAD conjunctiva). Input molecule: Cc1cccc(C)c1NC(=O)CCN1CCN(C2CCN(C(=O)c3cc(C(F)(F)F)cc(C(F)(F)F)c3)C(Cc3ccccc3)C2)CC1 (racemic)
Reply text: 0.40

Inquiry: Return reported log10(LAD conjunctiva). Input molecule: Cc1cccc(C)c1NC(=O)CN1CCN(C2CCN(C(=O)c3cc(C(F)(F)F)cc(C(F)(F)F)c3)C(Cc3ccc(F)c(F)c3)C2)CC1 (racemic) [Compound 134]
Reply text: 1.00

Inquiry: Return reported log10(LAD conjunctiva). Input molecule: O=C(CN1CCN(C2CCN(C(=O)c3cc(C(F)(F)F)cc(C(F)(F)F)c3)C(Cc3ccccc3)C2)CC1)N1CCCc2ccccc21 (racemic)
Reply text: 1.00

Inquiry: Return reported log10(LAD conjunctiva). Input molecule: Cc1cc(C)cc(NC(=O)CN2CCN(C3CCN(C(=O)c4cc(C(F)(F)F)cc(C(F)(F)F)c4)C(Cc4ccccc4)C3)CC2)c1 (stereo not shown) [Compound 50]
Reply text: 1.00

Inquiry: Return reported log10(LAD conjunctiva). Input molecule: Cc1ncc(Cn2c(N3CCCN(C4CCN(C(=O)c5cc(C(F)(F)F)cc(C(F)(F)F)c5)C(Cc5ccccc5)C4)CC3)nc3ccccc32)o1 (stereo not shown)
Reply text: 0.40

Inquiry: Return reported log10(LAD conjunctiva). Input molecule: Cc1cccc(C)c1NC(=O)CN1CCN([C@@H]2CCN(C(=O)c3cc(C(F)(F)F)cc(C(F)(F)F)c3)[C@@H](Cc3cc(F)cc(F)c3)C2)CC1 (racemic)
Reply text: 0.40

Inquiry: Return reported log10(LAD conjunctiva). Input molecule: O=C(CN1CCN(C2CCN(C(=O)c3cc(C(F)(F)F)cc(C(F)(F)F)c3)C(Cc3ccccc3)C2)CC1)NC1(c2ccccc2)CCCCC1 (stereo not shown) [Compound 49]
Reply text: 0.40

Inquiry: Return reported log10(LAD conjunctiva). Input molecule: O=C(CN1CCN(C2CCN(C(=O)c3cc(C(F)(F)F)cc(C(F)(F)F)c3)C(Cc3ccccc3)C2)CC1)Nc1c(Cl)cccc1Cl (racemic)
Reply text: -0.20

Inquiry: Return reported log10(LAD conjunctiva). Input molecule: Cc1cccc(C)c1NC(=O)CN1CCN([C@@H]2CCN(C(=O)c3cc(C(F)(F)F)cc(C(F)(F)F)c3)[C@@H](Cc3ccccc3)C2)CC1.O=C(O)C[C@H](O)C(=O)O (relative stereo)
Reply text: -0.51

Inquiry: Return reported log10(LAD conjunctiva). Input molecule: Cc1cccc(C)c1NC(=O)CCN1CCN(C2CCN(C(=O)c3cc(C(F)(F)F)cc(C(F)(F)F)c3)C(Cc3ccccc3)C2)CC1.O=C(O)C=CC(=O)O.O=C(O)C=CC(=O)O (racemic)
Reply text: 0.40
